# study.system: Huntingtin (Homo sapiens) (UniProt P42858)
# Sequence (P42858 whole entry, looked up, change not shown): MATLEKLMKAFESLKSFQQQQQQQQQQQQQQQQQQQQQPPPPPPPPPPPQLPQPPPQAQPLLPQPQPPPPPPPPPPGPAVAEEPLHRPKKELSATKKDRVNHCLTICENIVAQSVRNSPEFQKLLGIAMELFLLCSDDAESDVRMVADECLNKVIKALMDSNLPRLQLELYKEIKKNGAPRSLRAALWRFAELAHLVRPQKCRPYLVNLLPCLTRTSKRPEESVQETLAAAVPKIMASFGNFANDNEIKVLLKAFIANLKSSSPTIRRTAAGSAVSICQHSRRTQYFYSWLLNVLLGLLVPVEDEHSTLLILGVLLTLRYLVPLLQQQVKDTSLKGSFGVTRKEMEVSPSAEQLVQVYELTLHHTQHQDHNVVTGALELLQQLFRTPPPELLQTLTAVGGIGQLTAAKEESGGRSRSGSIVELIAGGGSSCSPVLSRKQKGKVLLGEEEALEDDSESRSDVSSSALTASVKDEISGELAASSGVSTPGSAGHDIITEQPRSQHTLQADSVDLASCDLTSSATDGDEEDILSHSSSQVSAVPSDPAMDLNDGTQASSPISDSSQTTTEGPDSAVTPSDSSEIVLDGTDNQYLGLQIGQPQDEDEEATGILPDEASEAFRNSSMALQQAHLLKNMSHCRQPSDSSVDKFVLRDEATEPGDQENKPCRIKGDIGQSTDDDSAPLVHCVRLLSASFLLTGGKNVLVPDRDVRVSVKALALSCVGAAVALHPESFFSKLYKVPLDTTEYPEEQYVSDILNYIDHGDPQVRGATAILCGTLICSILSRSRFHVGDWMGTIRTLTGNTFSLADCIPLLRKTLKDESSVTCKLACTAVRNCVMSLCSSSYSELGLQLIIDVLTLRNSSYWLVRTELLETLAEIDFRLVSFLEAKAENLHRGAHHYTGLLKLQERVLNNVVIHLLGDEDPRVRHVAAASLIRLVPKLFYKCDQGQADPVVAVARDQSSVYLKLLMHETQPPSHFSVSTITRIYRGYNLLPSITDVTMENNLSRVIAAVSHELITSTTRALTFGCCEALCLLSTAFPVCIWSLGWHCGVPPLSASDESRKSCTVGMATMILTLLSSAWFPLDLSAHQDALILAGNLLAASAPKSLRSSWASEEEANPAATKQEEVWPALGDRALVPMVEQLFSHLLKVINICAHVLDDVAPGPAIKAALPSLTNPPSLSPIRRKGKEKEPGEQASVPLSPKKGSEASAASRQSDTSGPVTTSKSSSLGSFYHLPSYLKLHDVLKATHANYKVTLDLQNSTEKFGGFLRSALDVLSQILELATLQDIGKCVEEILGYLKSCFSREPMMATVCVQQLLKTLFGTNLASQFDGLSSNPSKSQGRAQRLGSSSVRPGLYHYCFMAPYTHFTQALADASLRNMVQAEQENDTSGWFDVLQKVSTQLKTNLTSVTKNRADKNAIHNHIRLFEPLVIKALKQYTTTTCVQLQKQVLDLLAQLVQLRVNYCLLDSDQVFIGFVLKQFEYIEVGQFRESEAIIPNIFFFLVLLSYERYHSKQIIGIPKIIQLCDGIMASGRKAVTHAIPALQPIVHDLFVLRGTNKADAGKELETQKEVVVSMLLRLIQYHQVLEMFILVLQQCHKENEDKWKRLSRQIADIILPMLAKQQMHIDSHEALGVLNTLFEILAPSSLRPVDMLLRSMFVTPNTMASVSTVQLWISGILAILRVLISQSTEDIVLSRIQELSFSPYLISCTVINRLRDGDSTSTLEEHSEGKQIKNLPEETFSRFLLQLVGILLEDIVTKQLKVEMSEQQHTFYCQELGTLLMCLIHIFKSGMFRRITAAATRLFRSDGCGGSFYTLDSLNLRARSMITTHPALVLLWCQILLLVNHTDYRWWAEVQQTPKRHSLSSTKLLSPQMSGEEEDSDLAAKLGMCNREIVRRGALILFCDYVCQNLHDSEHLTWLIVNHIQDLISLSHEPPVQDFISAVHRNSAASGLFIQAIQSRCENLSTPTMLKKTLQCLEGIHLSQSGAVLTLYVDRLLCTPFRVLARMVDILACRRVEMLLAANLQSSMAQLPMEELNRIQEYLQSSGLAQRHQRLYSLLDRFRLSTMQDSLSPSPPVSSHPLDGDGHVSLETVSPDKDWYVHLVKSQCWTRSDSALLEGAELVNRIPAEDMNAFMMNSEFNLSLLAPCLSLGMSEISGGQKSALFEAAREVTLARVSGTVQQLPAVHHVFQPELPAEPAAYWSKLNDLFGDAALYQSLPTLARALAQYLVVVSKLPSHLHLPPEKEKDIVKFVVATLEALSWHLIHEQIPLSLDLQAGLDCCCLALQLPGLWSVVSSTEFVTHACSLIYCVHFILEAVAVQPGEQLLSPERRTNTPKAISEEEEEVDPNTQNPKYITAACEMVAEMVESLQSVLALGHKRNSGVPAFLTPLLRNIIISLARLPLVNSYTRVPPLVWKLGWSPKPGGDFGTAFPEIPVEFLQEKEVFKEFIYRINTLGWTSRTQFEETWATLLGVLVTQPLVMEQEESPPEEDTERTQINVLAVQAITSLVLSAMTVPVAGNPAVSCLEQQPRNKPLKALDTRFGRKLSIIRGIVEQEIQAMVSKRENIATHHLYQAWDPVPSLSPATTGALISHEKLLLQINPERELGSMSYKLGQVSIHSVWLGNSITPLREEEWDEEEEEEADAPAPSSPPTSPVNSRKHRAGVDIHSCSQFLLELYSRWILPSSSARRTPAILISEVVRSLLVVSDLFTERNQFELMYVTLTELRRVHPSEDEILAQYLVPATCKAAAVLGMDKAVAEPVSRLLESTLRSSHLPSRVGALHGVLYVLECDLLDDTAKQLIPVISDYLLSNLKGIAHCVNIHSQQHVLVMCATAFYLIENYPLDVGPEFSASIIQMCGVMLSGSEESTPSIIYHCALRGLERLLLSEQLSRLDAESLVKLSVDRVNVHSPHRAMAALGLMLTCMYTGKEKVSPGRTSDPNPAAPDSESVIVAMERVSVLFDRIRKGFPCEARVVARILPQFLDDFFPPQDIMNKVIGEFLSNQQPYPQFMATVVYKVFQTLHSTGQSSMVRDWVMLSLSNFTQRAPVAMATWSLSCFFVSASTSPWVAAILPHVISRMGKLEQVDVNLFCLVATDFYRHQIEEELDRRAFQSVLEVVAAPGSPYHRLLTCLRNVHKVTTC
# test.summary: mutant huntingtin-calmodulin interaction inhibitors – biochemical, AlphaScreen, primary screen (AID 1671202)
# experimental.setup: AlphaScreen His-mHTT/GST-CaM binding, luminescence; at 15 µM
The whole screen tested about 190,000 compounds, of which about 6,900 (3.6%) were called active. Rule as the data show it: active = inhibition above about 50%; inactive = the rest. This excerpt belongs to a sample that is enriched for actives.
API: response.call in active, inactive

// param item: `Cc1csc(-c2ccc(CNC(=O)c3ccnn3C)cc2)n1` ; yields the recorded call
inactive

// param item: `Clc1ccc(-c2csc(Nc3ncccn3)n2)cc1` ; yields the recorded call
inactive

// param item: `O=C(CNc1ccccc1-c1nc2ccccc2[nH]c1=O)NC1CCCCCCC1` ; yields the recorded call
inactive

// param item: `CCOc1cccc2cc(C(=O)Nc3ccc(Cl)cc3Cl)c(=O)oc12` ; yields the recorded call
inactive

// param item: O=C(NCCC1=CCCCC1)C1CCCN(Cc2nc(-c3ccncc3)no2)C1 (stereo unspecified) ; yields the recorded call
inactive

// param item: `COc1cccc2cc(C(=O)NCCn3ccnc3C)oc12` ; yields the recorded call
inactive

// param item: `CCCCOc1ccc(C(=O)Nc2nnc(-c3ccncc3)o2)cc1` ; yields the recorded call
inactive

// param item: `COc1ccc2oc(=O)c(-c3csc(Nc4cccc(C(C)=O)c4)n3)cc2c1` ; yields the recorded call
inactive

// param item: `O=C1OC(/C=C/c2cccc(Cl)c2Cl)=NC/1=C\c1coc2ccccc2c1=O` ; yields the recorded call
inactive

// param item: `COc1cc(NS(=O)(=O)c2ccc(Nc3nc(-c4cccnc4)cs3)cc2)nc(OC)n1` ; yields the recorded call
inactive

// param item: `COc1ccc(-c2csc(Nc3ccc(O)cc3)n2)cc1` ; yields the recorded call
active
